Molecular target: recombinant human ULK1 protein (1-649) (Homo sapiens)
Construct: recombinant human ULK1 protein (1-649, SignalChem #U01-11G); purchased SignalChem U01-11G
Sequence (O75385 1-649): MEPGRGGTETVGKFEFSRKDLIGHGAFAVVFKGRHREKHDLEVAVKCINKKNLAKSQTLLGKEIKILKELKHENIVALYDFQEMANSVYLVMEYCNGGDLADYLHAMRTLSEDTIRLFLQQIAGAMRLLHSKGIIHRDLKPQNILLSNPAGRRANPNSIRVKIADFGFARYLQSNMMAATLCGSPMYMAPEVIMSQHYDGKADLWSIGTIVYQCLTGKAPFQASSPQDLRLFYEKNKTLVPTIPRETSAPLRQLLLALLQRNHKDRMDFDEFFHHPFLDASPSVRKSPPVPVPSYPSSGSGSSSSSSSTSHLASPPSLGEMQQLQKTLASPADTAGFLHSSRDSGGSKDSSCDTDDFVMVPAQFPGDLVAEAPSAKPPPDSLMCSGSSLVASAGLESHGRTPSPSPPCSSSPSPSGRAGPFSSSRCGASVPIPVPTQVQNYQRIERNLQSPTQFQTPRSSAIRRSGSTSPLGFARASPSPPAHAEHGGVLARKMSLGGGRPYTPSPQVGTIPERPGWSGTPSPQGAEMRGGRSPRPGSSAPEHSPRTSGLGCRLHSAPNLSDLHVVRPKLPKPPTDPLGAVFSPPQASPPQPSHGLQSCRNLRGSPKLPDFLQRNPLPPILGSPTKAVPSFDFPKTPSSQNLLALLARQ
Assay: ULK1 inhibition assay (ADP Glo)
Assay type: biochemical
Settings: Table 3
pIC50: −log10 of the molar value.
observed property: pIC50

| given smiles | result |
| --- | --- |
| CNC(=O)c1ccccc1Nc1nc(Nc2ccc3c(c2)OCO3)ncc1Br | 7.00 to 8.30 |
| NCCCNc1ncc(Br)c(Nc2ccccc2CO)n1 | < 7.00 |
| CC(=O)Nc1ccc(Nc2ncc(Br)c(Nc3ccccc3CO)n2)cc1 | 7.00 to 8.30 |
